Test: Cytotoxicity (viability) in blastic PBMC
Assay type: cell-based, human
Details: human, pha-stimulated pbmc, blastic, 30 μg/ml 2 hrs, d7; read-out: Viability of PBMC after exposure
property-measured: viability at 168 h (%)
Just the number please, in %, no unit attached.

Q: What value of measured viability at 168 h is listed for CCc1ccc2c3[nH]c4ccccc4c3cc[n+]2c1 ?
A: 35

---

Experiment: Cytotoxicity (viability) in blastic PBMC
Format: cell-based, human
Settings: human, pha-stimulated pbmc, blastic, 30 μg/ml 2 hrs, d3; read-out: Viability of PBMC after exposure
property-measured: viability at 72 h
The reply should consist of the numeric value with the unit placed after it.

Q: What measured viability at 72 h goes with CCc1ccc2c3[nH]c4ccccc4c3cc[n+]2c1 [flavopereirine] ?
A: 88%

---

Assay: Cytotoxicity (viability) in resting PBMC
Type: cell-based, human
Settings: human, pbmc, 60 μg/ml 2 hrs, d3; read-out: Viability of PBMC after exposure
Experimental: To evaluate the cytotoxicity of flavopereirine in resting PBMC and in blast cells, prewashed fresh and blastic PBMC taken from five randomly-selected,healthy, HIV-negative donors were treated in triplicate with 30 or 60 μg flavopereirine per ml of alcoholic solution for two hours, After washing twice, the cells were placed in culture in cellular culture medium until day 15. The viability of the cells of each group was examined by exclusion coloring with trypan blue and by quantimetric analysis. […]
property-measured: viability at 72 h (%)
Respond numerically; units are % and should not be typed.

Q: I would be grateful if you could share the reported viability at 72 h for CCc1ccc2c3[nH]c4ccccc4c3cc[n+]2c1 [flavopereirine] .
A: 56

---

Test: Cytotoxicity (viability) in blastic PBMC
Format: cell-based, human
Conditions: human, pha-stimulated pbmc, blastic, 60 μg/ml 2 hrs, d11; read-out: Viability of PBMC after exposure
property-measured: viability at 264 h (%)
Give just the numeric value; % need not be written.

Q: Any idea what its viability at 264 h is? The molecule is CCc1ccc2c3[nH]c4ccccc4c3cc[n+]2c1
A: 70

---

Assay: in vivo
Conditions: rat, in vivo, po
property-measured: LD50 at 336 h (mg/kg)
State the answer as a number, implicitly in mg/kg.

Q: What LD50 at 336 h value was documented for this compound, CCc1ccc2c3[nH]c4ccccc4c3cc[n+]2c1 ?
A: 10400

---

Assay: Cytotoxicity (viability) in resting PBMC
Type: cell-based, human
Conditions: human, pbmc, 30 μg/ml 2 hrs, d3; read-out: Viability of PBMC after exposure
Protocol: To evaluate the cytotoxicity of flavopereirine in resting PBMC and in blast cells, prewashed fresh and blastic PBMC taken from five randomly-selected,healthy, HIV-negative donors were treated in triplicate with 30 or 60 μg flavopereirine per ml of alcoholic solution for two hours, After washing twice, the cells were placed in culture in cellular culture medium until day 15. The viability of the cells of each group was examined by exclusion coloring with trypan blue and by quantimetric analysis. […]
property-measured: viability at 72 h (%)
Response body: numeric value in %, unit text excluded.

Q: For the compound CCc1ccc2c3[nH]c4ccccc4c3cc[n+]2c1 [flavopereirine] , what viability at 72 h is on record?
A: 95

---

Experiment: Cytotoxicity (viability) in resting PBMC
Type: cell-based, human
Conditions: human, pbmc, 30 μg/ml 2 hrs, d13; read-out: Viability of PBMC after exposure
property-measured: viability at 312 h (%)
Number only, in %; omit the unit.

Q: What value of viability at 312 h has been recorded for this entry: CCc1ccc2c3[nH]c4ccccc4c3cc[n+]2c1 [flavopereirine]
A: 82
